# target-system: cynomolgus monkey (cyno) TIGIT protein (cynomolgus monkey, UniProt A0A7N9I9V4 89-209)
# Sequence (A0A7N9I9V4 entry or part of it): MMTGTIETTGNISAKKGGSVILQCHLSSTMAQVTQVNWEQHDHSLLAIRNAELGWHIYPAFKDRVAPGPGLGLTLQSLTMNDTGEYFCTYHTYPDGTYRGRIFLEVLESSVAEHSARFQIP
# measurement-protocol: SPR, captured mAb
# reported koff; entries follow
// units = s⁻¹; emit number, no label

| binder | koff [s⁻¹] |
| --- | --- |
| 4.1A4.C96S.Q1E (antibody, V domains shown, FR/HVR pieces in order; also called 4.1A4.Q1E.C96S) VH: EVQLVQSGSELKKPGASVKVSCKASGYTLTNYPMNWVRQAPGRGLEWMGWINTNTGSPAYAQDFTERFVFSLDTSVTTAYLQISSLKAEDTAVYYCARTAITSVYHFDYWGQGTLVTVSS VL: DIQLTQSPSFLSASVGDRVTITCRASQGISSYLAWYQQKPGKAPRVLIYGATTLQSGVPSRFSGSESGTEFTLTISSLQPEDLATYYCQKLNSHPSSFGQGTKVEIK | 0.0169 |

State its koff: 7.4A3.C96Y.Q1E (antibody, V domains shown, No entry is tied to this variant by name; built from 7.4A3 with the two named changes (Q1E in the heavy chain, C96Y in HVR-L3); also called 7.4A3.Q1E.C96Y) VH: EVQLVQSGSDLKKPGASVRVSCKASGYTFTSYPMNWVRQAPGHGLEWMGWINTNTGNPTYVQGFTGRFVFSLDTSVNTAYLQISSLKAEDTAVYFCARTGGHTYDSYAFDVWGQGTMVTVSS VL: DIQLTQSPTFLSASVGDRVTITCRASQVISSSLAWYQQNPGKAPKLLIYAASTLQSGVPSRFSGSGSGTEFTLTISSLQPEDFVTYYCQHLHGYPYNFGQGTKVEIK
0.014

State its koff: 7.4A3 (antibody, V domains shown, OMT rat-derived human antibody; also called 7.4A3.Q1.C96) VH: QVQLVQSGSDLKKPGASVRVSCKASGYTFTSYPMNWVRQAPGHGLEWMGWINTNTGNPTYVQGFTGRFVFSLDTSVNTAYLQISSLKAEDTAVYFCARTGGHTYDSYAFDVWGQGTMVTVSS VL: DIQLTQSPTFLSASVGDRVTITCRASQVISSSLAWYQQNPGKAPKLLIYAASTLQSGVPSRFSGSGSGTEFTLTISSLQPEDFVTYYCQHLHGYPCNFGQGTKVEIK
0.000699

State its koff: 7.4A3.C96S.Q1E (antibody, V domains shown, also called 7.4A3.Q1E.C96S) VH: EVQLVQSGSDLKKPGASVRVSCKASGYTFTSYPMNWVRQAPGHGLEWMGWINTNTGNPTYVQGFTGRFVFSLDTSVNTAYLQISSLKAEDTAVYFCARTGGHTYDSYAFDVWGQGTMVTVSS VL: DIQLTQSPTFLSASVGDRVTITCRASQVISSSLAWYQQNPGKAPKLLIYAASTLQSGVPSRFSGSGSGTEFTLTISSLQPEDFVTYYCQHLHGYPSNFGQGTKVEIK
0.000556
